Recorded values, source patent US20230183239A1.

- MEASURED_ON: ENPP1 (Homo sapiens)
- Sequence (P22413 whole entry): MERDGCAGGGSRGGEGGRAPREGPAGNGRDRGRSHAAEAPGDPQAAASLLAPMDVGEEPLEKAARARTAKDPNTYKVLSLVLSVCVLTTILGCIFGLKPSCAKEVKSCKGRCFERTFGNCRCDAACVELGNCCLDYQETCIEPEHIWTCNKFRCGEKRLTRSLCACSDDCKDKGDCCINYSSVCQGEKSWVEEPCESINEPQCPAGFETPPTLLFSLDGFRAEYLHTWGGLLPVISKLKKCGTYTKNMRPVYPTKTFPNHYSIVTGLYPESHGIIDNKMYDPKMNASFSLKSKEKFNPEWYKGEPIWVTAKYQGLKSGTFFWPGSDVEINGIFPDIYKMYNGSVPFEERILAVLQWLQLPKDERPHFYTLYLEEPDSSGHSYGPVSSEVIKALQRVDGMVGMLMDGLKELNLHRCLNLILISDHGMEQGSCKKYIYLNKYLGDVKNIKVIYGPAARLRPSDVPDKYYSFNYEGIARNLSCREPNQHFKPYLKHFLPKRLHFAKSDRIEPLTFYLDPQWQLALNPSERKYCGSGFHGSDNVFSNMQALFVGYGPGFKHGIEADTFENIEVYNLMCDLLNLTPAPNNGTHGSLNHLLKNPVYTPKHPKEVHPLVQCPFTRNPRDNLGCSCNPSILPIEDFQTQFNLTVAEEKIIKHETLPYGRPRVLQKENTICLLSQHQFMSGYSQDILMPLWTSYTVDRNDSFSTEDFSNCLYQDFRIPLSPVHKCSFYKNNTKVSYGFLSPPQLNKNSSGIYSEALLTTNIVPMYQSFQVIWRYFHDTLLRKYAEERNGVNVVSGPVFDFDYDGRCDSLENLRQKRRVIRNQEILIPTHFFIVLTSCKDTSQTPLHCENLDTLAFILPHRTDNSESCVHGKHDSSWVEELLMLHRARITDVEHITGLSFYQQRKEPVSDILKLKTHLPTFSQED
- ASSAY_INFO: ENPP1 enzyme assay with AMP-pNP substrate (hydrolysis of ATP analog)
- Type: biochemical
- RECORDED_CONDITIONS: AMP-pNP substrate (ATP analog); Ki from IC50 by Cheng-Prusoff; read-out: ENPP1 Inhibition _AMP-pNP: Ki
pKi: −log10 of the molar value.
RESULT_TYPE: pKi

COMPOUND	RESULT_TYPE	MEASURED_RESULT
COc1ccc2c(-c3ccc4c(c3)CN(S(N)(=O)=O)CC4)c(C#N)cnc2c1	pKi	< 6.00
COc1cc2ncc(C#N)c(Nc3ccc(NS(N)(=O)=O)cc3)c2cc1OC	pKi	< 6.00
COc1ccc2c(-c3ccc(CNS(N)(=O)=O)cc3)ccnc2n1	pKi	> 7.00
COc1cc2nccc(Oc3ccc(S(N)(=O)=O)cc3)c2cc1OC	pKi	6.00 to 7.00
COc1cc2ncc(-c3ccc(CNS(N)(=O)=O)cc3)n2cc1OC	pKi	6.00 to 7.00
COc1cc2ccc(=O)n(Cc3ccc(NS(N)(=O)=O)cc3)c2cc1OC	pKi	< 6.00
COc1cc2ncc(F)c(-c3ccc(CNS(N)(=O)=O)cc3)c2cc1OC	pKi	> 7.00
COc1cc2ncc(C#N)c(N3CCC(CCNS(N)(=O)=O)CC3)c2cc1OC	pKi	6.00 to 7.00
NS(=O)(=O)NCc1ccc(-c2ccnc3cc(F)ccc23)cc1	pKi	< 6.00
COc1cc2ncc(C#N)c(-c3ccc(CN(C4CC4)S(N)(=O)=O)cc3)c2cc1OC	pKi	6.00 to 7.00
COc1cc2ncnc(N3CCC(CNS(N)(=O)=O)CC3)c2cc1OC	pKi	6.00 to 7.00
COc1ccc2c(Oc3ncc(NS(N)(=O)=O)cc3C)ccnc2c1	pKi	< 6.00
COc1cc2ncnc(Oc3ccc(NS(N)(=O)=O)cc3)c2cc1OC	pKi	< 6.00
COc1cc(F)c2c(N3CCc4cc(NS(N)(=O)=O)ccc43)ccnc2c1	pKi	< 6.00
COc1cc2nccc(-c3ccc4c(c3)CN(S(N)(=O)=O)CC4)c2cc1OC	pKi	> 7.00
COc1cc2c(N3CCC(CCNS(N)(=O)=O)CC3)ncnc2cc1Cl	pKi	< 6.00
COc1cc2ncnc(NC3CCC(NS(N)(=O)=O)CC3)c2cc1OC (stereo not drawn)	pKi	< 6.00
COc1cc2c(N3CCC4(CC3)CCN(S(N)(=O)=O)C4)c(C#N)cnc2cn1	pKi	< 6.00
